# assayed target: T1, purified human activated C1s protein, two-chain form (Homo sapiens, UniProt P09871 16-688)
# T1 construct: Purified protein bought from EMD Millipore; Biotin-labeled in the clone screen; also called active C1s; native C1s protein
# T1 sequence: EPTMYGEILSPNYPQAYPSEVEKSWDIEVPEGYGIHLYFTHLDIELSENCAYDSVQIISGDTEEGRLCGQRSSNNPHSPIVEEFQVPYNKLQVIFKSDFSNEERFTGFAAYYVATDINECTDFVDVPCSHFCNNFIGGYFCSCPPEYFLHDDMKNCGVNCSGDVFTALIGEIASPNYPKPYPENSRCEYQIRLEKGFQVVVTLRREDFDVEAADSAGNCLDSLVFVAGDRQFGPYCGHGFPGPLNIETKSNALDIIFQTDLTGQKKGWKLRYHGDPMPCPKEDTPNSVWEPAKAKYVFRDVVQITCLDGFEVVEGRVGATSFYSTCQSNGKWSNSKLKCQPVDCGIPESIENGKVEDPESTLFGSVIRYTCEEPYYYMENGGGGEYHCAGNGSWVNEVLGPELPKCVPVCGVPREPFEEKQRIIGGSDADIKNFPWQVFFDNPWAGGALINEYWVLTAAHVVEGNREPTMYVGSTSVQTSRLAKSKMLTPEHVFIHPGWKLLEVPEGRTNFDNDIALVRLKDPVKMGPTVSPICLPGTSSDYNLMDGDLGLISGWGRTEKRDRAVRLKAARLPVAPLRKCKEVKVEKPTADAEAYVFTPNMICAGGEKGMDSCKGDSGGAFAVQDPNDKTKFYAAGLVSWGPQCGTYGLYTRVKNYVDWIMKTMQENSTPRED
# assay summary: bio-layer interferometry (BLI), kinetic analysis
measured quantity: Kd (nM)
Give the quantity in nM, number only.

| binder | unit name | value reported |
| --- | --- | --- |
| antibody IPN-M33 (antibody, V domains shown, Mouse monoclonal antibody (NZBW hybridoma)) VH: QVKLQQSGPELVKPGTSVRISCKTSGYSFTGYYMHWVKQSPEKSLEWIGEINPSIGDITYNQRFKAKATLTVDKSSSTAYMQLKSLTSEDSAVYYCASDYYGGGFAWFAYWGQGTLVTVSA VL: DIVMTQSPAIMSASSGEKVTMTCSASSSINYMHWYQQKPGTSPKRWIYDTSKLASGVPARFSGSGSGTSYSLTISSMEAEDTATYYCHQRSDSLTFGSGTKLEIK | nM | 0.329 |

Alright, here's another binder for you.
GET /value?item= antibody IPN-M11 (antibody, V domains shown, Mouse monoclonal antibody (NZBW hybridoma)) VH: QVQLQQSGAELVRPGASVKLSCTASGFNIKDDYIHWVKQRPEQGLEWIGRIDPADDHTKYAPKFQDKATMTADTSSNTACLQLNSLTSEDTAVYYCAIYGSGWAWFPYWGQGTLVSVSA VL: DIVMTQSPDYLAVSLGQRAPISCKASQSVDYDGDSYMNWYQQKPGQPPKLLIYAASNLEFGIPTRFSGSGFGTDFPLNIHPVEEEDAATYYCQQSNEDPWTFGGGPKLEIK &field=Kd returns 0.21

These data points were gathered from patent US20200079876A1.
